src = patent US12492208B2

- ASSAY_COMMENT: Blood concentration measurement test
- Assay type: in vivo, female rats (Crl:CD (SD))
- MEASUREMENT_CONDITIONS: female, Crl:CD (SD), rat, plasma, po, 300 mg/kg, read-out: AUC0-6hr
MEASURED_ENDPOINT: AUC(0-t) (µM·h)
Number only, in µM·h; omit the unit.

In: I am curious: what AUC(0-t) value has been reported for C=CC(=O)N1C[C@H](n2c(C#CC3CC3)c(C(=O)N[C@H](C)c3ccccc3)c3c(N)ncnc32)C[C@@H]1C [free-form type I crystal of compound (I)] ?
Out: 7.11

----------
- TESTED_TARGET: recombinant human HER2 exon 20 insertion mutant (A775_G776insYVMA) protein (Homo sapiens, UniProt P04626, INS775YVMA)
- Construct: purchased SignalChem
- Sequence (P04626 with tags, fused parts or gaps INS775YVMA limits assumed): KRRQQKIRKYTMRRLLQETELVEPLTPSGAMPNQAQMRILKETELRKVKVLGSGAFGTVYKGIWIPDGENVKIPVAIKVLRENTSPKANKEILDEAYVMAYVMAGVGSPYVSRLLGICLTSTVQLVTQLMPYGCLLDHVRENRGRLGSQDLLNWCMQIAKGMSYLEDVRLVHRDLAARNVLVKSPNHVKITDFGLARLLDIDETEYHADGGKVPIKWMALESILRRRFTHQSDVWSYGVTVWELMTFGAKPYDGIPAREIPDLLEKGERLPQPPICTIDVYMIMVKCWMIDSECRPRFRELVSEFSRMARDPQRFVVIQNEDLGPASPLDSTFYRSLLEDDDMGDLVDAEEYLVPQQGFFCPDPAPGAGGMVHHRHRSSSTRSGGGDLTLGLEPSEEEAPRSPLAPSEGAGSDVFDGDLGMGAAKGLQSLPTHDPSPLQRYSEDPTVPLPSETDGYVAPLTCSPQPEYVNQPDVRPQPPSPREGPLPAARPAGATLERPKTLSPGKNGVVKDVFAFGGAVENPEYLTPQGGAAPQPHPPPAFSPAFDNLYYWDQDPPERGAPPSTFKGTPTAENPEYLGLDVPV
- ASSAY_COMMENT: Inhibitory action (in vitro) against HER2 exon 20 insertion mutant phosphorylation activity
- Format: biochemical
- MEASUREMENT_CONDITIONS: pre-incubated 30 minutes, ATP 200 μM, 220 minutes; read-out: HER2ex20insYVMA inhibitory activity IC50 value
MEASURED_ENDPOINT: IC50

In: I am curious: what IC50 value has been reported for C=CC(=O)N1C[C@H](n2c(C#CC3CC3)c(C(=O)N[C@H](C)c3ccccc3)c3c(N)ncnc32)C[C@@H]1C [compound (I)] ?
Out: < 0.3 nM

----------
- ASSAY_COMMENT: Blood concentration measurement test
- Type: in vivo, female rats (Crl:CD (SD))
- MEASUREMENT_CONDITIONS: rat, oral, 100 mg/kg; listed as Type II crystal of compound (I) with 1 equivalent of fumaric acid
MEASURED_ENDPOINT: Cmax (nM)
Number only, in nM; omit the unit.

In: I am curious: what Cmax value has been reported for `C=CC(=O)N1C[C@H](n2c(C#CC3CC3)c(C(=O)N[C@H](C)c3ccccc3)c3c(N)ncnc32)C[C@@H]1C` ?
Out: 2740

----------
- ASSAY_COMMENT: Blood concentration measurement test
- Format: in vivo, female rats (Crl:CD (SD))
- MEASUREMENT_CONDITIONS: female, Crl:CD (SD), rat, plasma, po, 100 mg/kg, read-out: AUC0-6hr
MEASURED_ENDPOINT: AUC(0-t) (µM·h)
Number only, in µM·h; omit the unit.

In: I am curious: what AUC(0-t) value has been reported for C=CC(=O)N1C[C@H](n2c(C#CC3CC3)c(C(=O)N[C@H](C)c3ccccc3)c3c(N)ncnc32)C[C@@H]1C [free-form type I crystal of compound (I)] ?
Out: 7.42

----------
- ASSAY_COMMENT: Blood concentration measurement test
- Type: in vivo, female rats (Crl:CD (SD))
- MEASUREMENT_CONDITIONS: rat, oral, 300 mg/kg; listed as Type I crystal of compound (I) (with hydrochloric acid)
MEASURED_ENDPOINT: Cmax (nM)
Number only, in nM; omit the unit.

In: I am curious: what Cmax value has been reported for C=CC(=O)N1C[C@H](n2c(C#CC3CC3)c(C(=O)N[C@H](C)c3ccccc3)c3c(N)ncnc32)C[C@@H]1C [free-form type I crystal of compound (I)] ?
Out: 2250

----------
- ASSAY_COMMENT: Dynamic vapor sorption (DVS) test
- Assay type: physicochemical
- MEASUREMENT_CONDITIONS: relative humidity 40%, 25° C.
MEASURED_ENDPOINT: Weight change rate, Desorption (%)

C=CC(=O)N1C[C@H](n2c(C#CC3CC3)c(C(=O)N[C@H](C)c3ccccc3)c3c(N)ncnc32)C[C@@H]1C [type V crystal of compound (I) with 1 equivalent of fumaric ] | 0.27
C=CC(=O)N1C[C@H](n2c(C#CC3CC3)c(C(=O)N[C@H](C)c3ccccc3)c3c(N)ncnc32)C[C@@H]1C [free-form type II crystal of compound (I)] | 0.06
C=CC(=O)N1C[C@H](n2c(C#CC3CC3)c(C(=O)N[C@H](C)c3ccccc3)c3c(N)ncnc32)C[C@@H]1C [free-form type I crystal of compound (I)] | 0.13

P = C=CC(=O)N1C[C@H](n2c(C#CC3CC3)c(C(=O)N[C@H](C)c3ccccc3)c3c(N)ncnc32)C[C@@H]1C [crystal of compound (I) with 1 equivalent of L-tartaric acid]
Q = C=CC(=O)N1C[C@H](n2c(C#CC3CC3)c(C(=O)N[C@H](C)c3ccccc3)c3c(N)ncnc32)C[C@@H]1C [type II crystal of compound (I) with 1 equivalent of fumaric]
In: Which value of Weight change rate, Desorption is greater, the one for P or the one for Q ? Your answer should be the label attached to the chosen record.
Out: P
